- target-of-assay: PPARγ (Homo sapiens, UniProt P37231)
- Construct: PPARγ KdApp; other: HeLN cells stably transfected with Gal-hPPARγ and luciferase reporter; KdApp in nM (PPARγ receptors), compounds according to the present invention; Either is a handle for the test and no part of the key
- Sequence (P37231 238-505 limits assumed): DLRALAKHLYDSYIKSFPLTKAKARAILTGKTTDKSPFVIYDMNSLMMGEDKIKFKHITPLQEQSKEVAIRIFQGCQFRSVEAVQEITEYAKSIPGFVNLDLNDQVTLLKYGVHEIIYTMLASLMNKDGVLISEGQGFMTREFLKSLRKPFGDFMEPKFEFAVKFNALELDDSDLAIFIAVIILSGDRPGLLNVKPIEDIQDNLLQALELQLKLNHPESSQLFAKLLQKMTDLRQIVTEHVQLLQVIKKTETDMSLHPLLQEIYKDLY
- method-description: Crossed-curve PPAR transactivation assay (PPARγ)
- Assay type: cell-based
- test-settings: Table 1, PPARγ receptors; read-out: KdApp in nM (PPARγ receptors), compounds according to the present invention
- Experimental: Activation of the PPAR receptors by an agonist (activator) in HeLN cells leads to the expression of a reporter gene, luciferase, which, in the presence of a substrate, generates light. The modulation of the PPAR receptors is measured by quantifying the luminescence produced after incubation of the cells in the presence of a reference agonist. The ligands will displace the agonist from its site. The measurement of the activity is performed by quantifying the light produced. […]
measured-metric: Kd

- CCCCCCCNC(=O)N(C)c1cccc(-c2ccc(C[C@H](OCC)C(=O)O)cc2)c1: < 1 nM

* * *

- target-of-assay: PPARδ (Homo sapiens)
- Construct: Either is a handle for the test and no part of the key
- Sequence (Q03181 171-441 limits assumed): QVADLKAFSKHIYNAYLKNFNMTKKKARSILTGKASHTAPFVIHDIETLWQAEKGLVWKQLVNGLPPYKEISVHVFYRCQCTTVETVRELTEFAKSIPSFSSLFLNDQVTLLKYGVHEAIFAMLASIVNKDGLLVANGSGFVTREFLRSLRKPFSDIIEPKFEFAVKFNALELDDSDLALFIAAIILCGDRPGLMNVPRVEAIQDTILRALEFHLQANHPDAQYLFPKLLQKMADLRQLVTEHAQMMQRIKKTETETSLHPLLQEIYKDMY
- method-description: Crossed-curve PPAR transactivation assay (PPARδ)
- test-settings: HeLN cells stably transfected with Gal-hPPARδ and luciferase reporter; crossed curves vs reference agonist, Schild regression; read-out: PPARδ KdApp
- Description: Activation of the PPAR receptors by an agonist (activator) in HeLN cells leads to the expression of a reporter gene, luciferase, which, in the presence of a substrate, generates light. The modulation of the PPAR receptors is measured by quantifying the luminescence produced after incubation of the cells in the presence of a reference agonist. The ligands will displace the agonist from its site. The measurement of the activity is performed by quantifying the light produced. […]
measured-metric: Kd (nM)

- C=CCO[C@@H](Cc1ccc(-c2cccc(N(C)C(=O)NCCCCCCC)c2)cc1)C(=O)O: 50
- CCCCCCCNC(=O)N(C)c1cccc(-c2ccc(C[C@H](OCCC)C(=O)O)cc2)c1: 500
- CCCCCNC(=O)N(C)c1cccc(-c2ccc(C[C@H](OCC)C(=O)O)cc2)c1: 2000
- CCCCCCCNC(=O)N(C)c1cccc(-c2ccc(C[C@H](OCC)C(=O)O)cc2)c1: 250

* * *

Kd for assorted compounds
- target-of-assay: PPARα (Homo sapiens)
- Construct: Either is a handle for the test and no part of the key
- Sequence (Q07869 200-468 limits assumed): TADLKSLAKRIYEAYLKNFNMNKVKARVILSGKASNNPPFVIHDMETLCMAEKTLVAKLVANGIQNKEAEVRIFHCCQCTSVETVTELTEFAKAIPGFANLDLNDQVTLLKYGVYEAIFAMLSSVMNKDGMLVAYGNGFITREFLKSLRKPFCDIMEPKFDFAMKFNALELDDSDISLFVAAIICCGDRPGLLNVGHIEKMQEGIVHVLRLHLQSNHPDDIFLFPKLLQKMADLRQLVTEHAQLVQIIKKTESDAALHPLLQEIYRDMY
- method-description: Crossed-curve PPAR transactivation assay (PPARα)
- test-settings: HeLN cells stably transfected with Gal-hPPARα and luciferase reporter; crossed curves vs reference agonist, Schild regression; read-out: PPARα KdApp
measured-metric: Kd (nM)

- CCCCCCCNC(=O)N(C)c1cccc(-c2ccc(C[C@H](OCCC)C(=O)O)cc2)c1: 30
- CCCCCNC(=O)N(C)c1cccc(-c2ccc(C[C@H](OCC)C(=O)O)cc2)c1: 250
- C=CCO[C@@H](Cc1ccc(-c2cccc(N(C)C(=O)NCCCCCCC)c2)cc1)C(=O)O: 2
- CCCCCCCNC(=O)N(C)c1cccc(-c2ccc(C[C@H](OCc3ccccc3)C(=O)O)cc2)c1: 250
- CCCCCCCNC(=O)N(C)c1cccc(-c2ccc(C[C@H](OCC)C(=O)O)cc2)c1: 30

The values you see were collected from patent US7973063B2.
